TARGET OR SYSTEM: DYRK4 (human) (UniProt Q9NR20)
Sequence (Q9NR20 whole entry, looked up): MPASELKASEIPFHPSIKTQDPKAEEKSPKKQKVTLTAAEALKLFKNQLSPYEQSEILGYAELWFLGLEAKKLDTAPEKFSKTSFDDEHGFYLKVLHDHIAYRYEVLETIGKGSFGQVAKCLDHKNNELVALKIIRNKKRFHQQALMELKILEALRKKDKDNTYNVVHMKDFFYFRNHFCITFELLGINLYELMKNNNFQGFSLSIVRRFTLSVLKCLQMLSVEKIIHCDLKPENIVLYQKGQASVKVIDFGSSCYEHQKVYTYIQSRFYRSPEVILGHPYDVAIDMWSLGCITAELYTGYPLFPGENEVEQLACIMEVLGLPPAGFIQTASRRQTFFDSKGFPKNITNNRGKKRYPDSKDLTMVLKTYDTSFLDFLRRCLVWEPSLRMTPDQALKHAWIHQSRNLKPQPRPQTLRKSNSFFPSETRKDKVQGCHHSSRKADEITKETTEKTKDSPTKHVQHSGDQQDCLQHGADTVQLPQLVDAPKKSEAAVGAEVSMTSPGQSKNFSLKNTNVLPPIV
MEASUREMENT PROTOCOL: radiometric filter-binding kinase assay, Kinase HotSpot
TEST CONDITIONS: compound 0.5 µM; ATP 10 µM

{"columns": ["CHEMICAL SMILES", "TARGET OR SYSTEM", "residual activity"],
 "data": [
  ["N#CC(C#N)=C(N)/C(C#N)=C/c1ccc(O)cc1", "DYRK4 (human) (UniProt Q9NR20)", "107%"],
  ["CCN(CC)CCNC(=O)c1c(C)[nH]c(/C=C2\\C(=O)Nc3ccc(F)cc32)c1C", "DYRK4 (human) (UniProt Q9NR20)", "104%"],
  ["CC(C)N(CCC(=O)c1ccc2ccccc2c1)Cc1ccccc1", "DYRK4 (human) (UniProt Q9NR20)", "88.5%"],
  ["Nc1ccc2ncnc(NCCc3ccc(Oc4ccccc4)cc3)c2c1", "DYRK4 (human) (UniProt Q9NR20)", "93.7%"],
  ["Nc1ncnc2c1c(-c1ccc(Oc3ccccc3)cc1)cn2C1CCCC1", "DYRK4 (human) (UniProt Q9NR20)", "91.6%"],
  ["Nc1cccc(-c2cc3c(Oc4cccc(O)c4)ncnc3[nH]2)c1", "DYRK4 (human) (UniProt Q9NR20)", "101%"],
  ["O=S(=O)(c1cccc2cnccc12)N1CCCNCC1", "DYRK4 (human) (UniProt Q9NR20)", "97.9%"],
  ["N#C/C(=C(/N)Sc1ccc(N)cc1)c1ccccc1C(F)(F)F", "DYRK4 (human) (UniProt Q9NR20)", "92.4%"],
  ["c1ccc(-c2n[nH]c3c2oc2ccccc23)cc1", "DYRK4 (human) (UniProt Q9NR20)", "99.7%"],
  ["O=C1NC(=O)c2c1c1c3ccccc3n3c1c1c2c2ccccc2n1C1CCC3O1", "DYRK4 (human) (UniProt Q9NR20)", "87.8%"],
  ["Cc1ccc(NC2=CC(=O)c3sc(C)nc3C2=O)cc1", "DYRK4 (human) (UniProt Q9NR20)", "97.9%"]
]}

====

TARGET OR SYSTEM: EPHA2 (human) (UniProt P29317)
Sequence (P29317 whole entry, looked up): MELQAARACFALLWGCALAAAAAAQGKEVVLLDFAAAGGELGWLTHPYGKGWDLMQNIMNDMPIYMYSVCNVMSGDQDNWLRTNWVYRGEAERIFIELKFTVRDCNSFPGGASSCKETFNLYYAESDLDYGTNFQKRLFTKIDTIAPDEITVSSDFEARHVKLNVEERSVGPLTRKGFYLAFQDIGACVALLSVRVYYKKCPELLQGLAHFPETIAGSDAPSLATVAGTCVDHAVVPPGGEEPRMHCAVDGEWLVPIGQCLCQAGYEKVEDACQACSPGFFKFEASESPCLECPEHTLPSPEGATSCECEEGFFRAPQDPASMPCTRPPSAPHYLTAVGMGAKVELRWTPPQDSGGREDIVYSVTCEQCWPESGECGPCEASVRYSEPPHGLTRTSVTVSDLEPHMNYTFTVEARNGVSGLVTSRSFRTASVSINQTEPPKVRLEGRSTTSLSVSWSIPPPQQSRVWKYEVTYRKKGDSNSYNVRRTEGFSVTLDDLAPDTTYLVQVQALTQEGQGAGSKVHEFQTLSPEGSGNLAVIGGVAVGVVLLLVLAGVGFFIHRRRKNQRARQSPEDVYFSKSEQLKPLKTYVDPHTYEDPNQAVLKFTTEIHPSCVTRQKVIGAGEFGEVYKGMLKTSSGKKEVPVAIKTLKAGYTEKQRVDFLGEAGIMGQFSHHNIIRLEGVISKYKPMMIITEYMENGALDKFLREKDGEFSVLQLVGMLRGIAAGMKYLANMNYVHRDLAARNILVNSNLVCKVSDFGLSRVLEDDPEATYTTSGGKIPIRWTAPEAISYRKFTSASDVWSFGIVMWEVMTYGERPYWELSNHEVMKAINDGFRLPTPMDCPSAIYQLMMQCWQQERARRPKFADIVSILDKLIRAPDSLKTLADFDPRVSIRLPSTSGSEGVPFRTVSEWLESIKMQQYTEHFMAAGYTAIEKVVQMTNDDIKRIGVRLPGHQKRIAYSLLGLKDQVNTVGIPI
MEASUREMENT PROTOCOL: radiometric filter-binding kinase assay, Kinase HotSpot
TEST CONDITIONS: compound 0.5 µM; ATP 10 µM
// boundary case: residual activity equal to 90% maps to 0.0; strictly smaller maps to 1.0

{"columns": ["COMPOUND", "CAT"],
 "data": [
  ["CO[C@H]1CC2CC[C@@H](C)[C@@](O)(O2)C(=O)C(=O)N2CCCC[C@H]2C(=O)OC([C@H](C)C[C@@H]2CC[C@@H](O)[C@H](OC)C2)CC(=O)[C@H](C)/C=C(\\C)[C@@H](O)[C@@H](OC)C(=O)[C@H](C)C[C@H](C)/C=C/C=C/C=C/1C (stereo not given in full)", 0.0],
  ["CCOC(=O)c1c(C)[nH]c(/C=C2\\C(=O)Nc3ccccc32)c1C", 0.0],
  ["O=C(Nc1cccc(Nc2nccc(Nc3cccc(C(F)(F)F)c3)n2)c1)C1CC1", 1.0],
  ["O=C1NC(=O)C(c2cn(CCCn3ccnc3)c3ccccc23)=C1Nc1ccccc1", 0.0],
  ["O=c1cc(N2CCOCC2)oc2c1ccc1ccccc12", 0.0],
  ["CC(=O)c1ccc(N2CCOCC2)cc1O", 0.0],
  ["O=C1NC(=O)/C(=C/c2ccc3c(c2)OC(F)(F)O3)S1", 0.0],
  ["CCN(CC)CCNC(=O)c1c(C)[nH]c(/C=C2\\C(=O)Nc3ccc(F)cc32)c1C", 1.0],
  ["Nc1ncnc2c1c(-c1ccc(Oc3ccccc3)cc1)cn2C1CCCC1", 0.0],
  ["CCCC(=O)Oc1ccc2[nH]c(C(=O)c3cc4ccccc4[nH]3)cc2c1", 0.0],
  ["Cc1ccc(NC2=CC(=O)c3sc(C)nc3C2=O)cc1", 0.0],
  ["CC[n+]1c(/C=C/N(C)c2ccccc2)n(-c2ccccc2)c2ccc(-c3nc4ccccc4s3)cc21", 0.0],
  ["COc1ccc2c(c[n+](C)c3c4cc5c(cc4ccc23)OCO5)c1OC", 0.0],
  ["COc1cc2ncnc(Nc3cccc(Cl)c3)c2cc1OC", 1.0],
  ["CC#CC(=O)Nc1cc2c(Nc3ccc(F)c(Cl)c3)ncnc2cn1", 0.0],
  ["CNC(=O)c1cc(Oc2ccc(NC(=O)Nc3ccc(Cl)c(C(F)(F)F)c3)cc2)ccn1", 1.0],
  ["CCN(CC)CCNC(=O)c1c(C)[nH]c(/C=C2\\C(=O)Nc3ccc(Cl)cc32)c1C", 0.0]
]}
